Tgt: human MDM2 protein (amino acids 2-188) (Homo sapiens (Human))
Measurement protocol: TR-FRET assay, p53-MDM2 Assay 2 (modified)
Format: binding
Condition description: TR-FRET; 0.1 nM MDM2, 0.1 nM Europium labeled streptavidin, Tecan genios Pro reader; read-out: IC50 p53-MDM2 Assay 2
Method: The inhibition of p53-MDM2 and p53-MDM4 interactions is measured by time resolved fluorescence energy transfer (TR-FRET). Fluorescence energy transfer (or Foerster resonance energy transfer) describes an energy transfer between donor and acceptor fluorescent molecules. […] The ratiometric FRET assay readout is calculated from the raw data of the two distinct fluorescence signals measured in time resolved mode (fluorescence 665 nm/fluorescence 620 nm×1000). […]
Endpoint label: IC50 (nM)
Answer with a number only, understood to be in nM.

Check out these entries, answers already filled in.
CCn1c(-c2cnc(OC)nc2OC)cc2c1C(c1ccc(Cl)cc1)N(c1cc(Cl)ccc1C)C2=O (centres unmarked) [Example 45]	87.6
COc1ccccc1-c1cc2c(n1C(C)C)C(c1ccc(Cl)cc1C)N(C1CCOCC1)C2=O (centres unmarked) [Example 104]	15.3
COc1cn(C)c(=O)cc1-c1cc2c(n1C(C)C)C(c1ccc(Cl)cc1)N(c1cc(C)nn1C)C2=O (centres unmarked) [Example 178]	1.07
COc1nc(N(C)C)ncc1-c1cc2c(n1C(C)C)C(c1ccc(Cl)cc1)N(C1CN(C)C(=O)N(C)C1)C2=O (centres unmarked) [Example 159]	0.161
CNC(=O)c1ccc(OC)c(-c2cc3c(n2C(C)C)[C@@H](c2ccc(Cl)cc2C)N(c2cccc(Cl)c2F)C3=O)c1 [Example 8]	49

Query block: Need IC50 of COc1nc(N(C)C)ncc1-c1cc2c(n1C(C)C)C(c1ccc(Cl)cc1)N([C@H]1CC[C@H](O)CC1)C2=O (some centres unmarked) [Example 69] , thanks.
Result block: 0.777

Query block: Queued: CNC(=O)c1ccc(OC)c(-c2cc3c(n2C(C)C)C(c2ccc(Cl)cc2C)N(c2cc(Cl)ccc2C)C3=O)c1 (centres unmarked) [Example 31]
Result block: 0.184

Query block: Queued: COc1cn(C)c(=O)cc1-c1cc2c(n1C(C)C)C(c1ccc(Cl)cc1)N(c1c(F)c(C)nn1C)C2=O (centres unmarked) [Example 208]
Result block: 0.861

---

Tgt: human MDM2 protein (amino acids 2-188) (Homo sapiens (Human), UniProt Q00987)
Sequence (Q00987 2-188): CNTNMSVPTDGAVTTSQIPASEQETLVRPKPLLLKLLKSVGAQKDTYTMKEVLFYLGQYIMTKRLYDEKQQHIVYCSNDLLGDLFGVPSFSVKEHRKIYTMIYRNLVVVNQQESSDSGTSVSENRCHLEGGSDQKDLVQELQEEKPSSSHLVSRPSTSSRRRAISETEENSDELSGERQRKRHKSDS
Measurement protocol: TR-FRET assay, p53-MDM2 Assay 1
Format: binding
Condition description: 1.25 nM MDM2-biotinylated, 10 nM Cy5-p53 peptide
Procedure: The inhibition of p53-MDM2 and p53-MDM4 interactions is measured by time resolved fluorescence energy transfer (TR-FRET). Fluorescence energy transfer (or Foerster resonance energy transfer) describes an energy transfer between donor and acceptor fluorescent molecules. […] The ratiometric FRET assay readout is calculated from the raw data of the two distinct fluorescence signals measured in time resolved mode (fluorescence 665 nm/fluorescence 620 nm×1000). […]
Rule: measured IC50 below 3 nM gets Met; anything equal to or greater than 3 nM gets Not met.

Examples with answers:
COc1ccccc1-c1cc2c(n1C(C)C)C(c1ccc(Cl)cc1C)N([C@H]1CC[C@H](O)CC1)C2=O (stereo partly drawn) [Example 101]	Not met
COc1ncc(-c2cc3c(n2C(C)C)[C@H](c2ccc(Cl)cc2)N(c2cc(Cl)c(=O)n(C)c2)C3=O)c(OC)n1 [Example 121]	Met
COc1ncc(-c2cc3c(n2C(C)C)C(c2ccc(Cl)cc2C)N([C@H]2CC[C@H](O)CC2)C3=O)c(OC)n1 (stereo partly drawn) [Example 103]	Not met
COc1nc(N(C)C)ncc1-c1cc2c(n1C(C)C)[C@H](c1ccc(C#N)cc1)N(c1cc(Cl)c[nH]c1=O)C2=O [Example 167]	Met

// next entry
Query block: Report whether reported IC50 is lower than 3 nM (strictly) for CNC(=O)c1ccc(OC)c(-c2cc3c(n2C(C)C)C(c2ccc(Cl)cc2C)N(c2cccc(Cl)c2F)C3=O)c1 (stereo not drawn) [Example 2]
Result block: Met
